Provide the reported AC35 of each item.
- Tested on: A673 NR0B1-luciferase reporter, viability-normalised luminescence
- ASSAY INFO: suppressors of NR0B1-promoter luciferase reporter, dose response, EWS/Fli inhibitor project, luciferase luminescence, A673 cells, cherry-pick (AID 686920)

Reference set, count: 4
COMPOUND	AC35
C[C@H]1CN([C@@H](C)CO)S(=O)(=O)c2ccc(C#Cc3ccncc3)cc2O[C@@H]1CN(C)C(=O)Nc1ccc2c(c1)OCO2	10.1 µM
C=CCOc1ccccc1C(=O)/C=C1/C(=O)Nc2ccccc21	14.5 µM
CCOC(=O)C1CCCCN1C(=O)CCc1c(C)nc2cc(-c3ccccc3)nn2c1C (centres undefined)	1.16 µM
OC[C@H]1O[C@@H](n2cnc3c(NCc4ccco4)ncnc32)[C@H](O)[C@@H]1O	4.99 µM

// input: 5 compounds below; output: AC35 for each
1. C=C(C(=O)c1ccccc1)C(C)C(=C)C(=O)c1ccccc1
2. Cc1ccc(/C=C/C(=O)N2CCN(S(=O)(=O)c3c(C)c(C)cc(C)c3C)CC2)o1
3. Cc1cc(Br)ccc1N=C1C(=O)Nc2ccccc21
4. C[C@H](CO)N1C[C@H](C)[C@H](CN(C)Cc2ccc(C(F)(F)F)cc2)Oc2ccc(NC(=O)CCCCCC(=O)Nc3ccccc3N)cc2CC1=O
5. O=C(Nc1ccc(OC(=O)N2CCCCC2)cc1)N1CCOCC1

Result ::
1: 5.4 µM; 2: 49 µM; 3: 5.12 µM; 4: 6.04 µM; 5: 4.3 µM
